Sourced from patent US4443436A

Tested on: Staphylococcus aureus
runDescription: MIC, broth-dilution microtiter test, Staphylococcus aureus
Type: cell-based
Text: The MIC's in Table X were obtained using conventional broth-dilution microtiter tests.
recordedEndpoint: MIC
Write the figure, then the unit, nothing else.

1. CCC1OC(=O)CC(O)C(C)C(OC2OC(C)C(OC3CC(C)(O)C(O)C(C)O3)C(N(C)C)C2O)C(CCSc2ccccc2)CC(C)C(=O)C=CC(C)=CC1COC1OC(C)C(O)C(OC)C1OC (stereo not drawn) [Compound 6, 20-DH-DO-20-(Phenylthio)tylosin]	3.12 µg/mL
2. CCC1OC(=O)CC(O)C(C)C(OC2OC(C)C(OC3CC(C)(O)C(O)C(C)O3)C(N(C)C)C2O)C(CCN=[N+]=[N-])CC(C)C(=O)C=CC(C)=CC1COC1OC(C)C(O)C(OC)C1OC (stereo not drawn) [Compound 2, 20-DH-DO-20-Azidotylosin]	3.12 µg/mL

Then there is this compound:
Recorded result, CCC1OC(=O)CC(O)C(C)C(OC2OC(C)C(OC3CC(C)(O)C(O)C(C)O3)C(N(C)C)C2O)C(C)CC(C)C(=O)C=CC(C)=CC1COC1OC(C)C(O)C(O)C1OC (stereo not drawn) [Compound 54, 20-Deformylmacrocin] , MIC: 3.12 µg/mL

###

System: Mycoplasma gallisepticum
runDescription: MIC, broth-dilution microtiter test, Mycoplasma gallisepticum
Assay type: cell-based
measurementParameters: Mycoplasma gallisepticum; broth-dilution microtiter
recordedEndpoint: MIC (µg/mL)
Give bare numbers, in µg/mL.

Previously resolved entries follow.
1) CCC1OC(=O)CC(O)C(C)C(OC2OC(C)C(O)C(N(C)C)C2O)C(CCN2C(=O)c3ccccc3C2=O)CC(C)C(=O)C=CC(C)=CC1COC1OC(C)C(O)C(OC)C1OC (stereo not drawn)	0.78
2) CCC1OC(=O)CC(O)C(C)C(OC2OC(C)C(O)C(N(C)C)C2O)C(CCN=[N+]=[N-])CC(C)C(=O)C=CC(C)=CC1COC1OC(C)C(O)C(OC)C1OC (stereo not drawn)	0.39
3) CCC(=O)OC1C(OC2C(CCCl)CC(C)C(=O)C=CC(C)=CC(COC3OC(C)C(O)C(OC)C3OC)C(CC)OC(=O)CC(O)C2C)OC(C)C(O)C1N(C)C (stereo not drawn)	0.39
4) CCC(=O)OC1C(C)OC(OC2C(CCN3C(=O)c4ccccc4C3=O)CC(C)C(=O)C=CC(C)=CC(COC3OC(C)C(O)C(OC)C3OC)C(CC)OC(=O)CC(O)C2C)C(OC(=O)CC)C1N(C)C (stereo not drawn)	0.09
5) CCC1OC(=O)CC(O)C(C)C(OC2OC(C)C(O)C(N(C)C)C2O)C(CCOc2ccccc2)CC(C)C(=O)C=CC(C)=CC1COC1OC(C)C(O)C(O)C1OC (stereo not drawn)	0.78

Then there is this compound:
Recorded result, CCC1OC(=O)CC(O)C(C)C(OC2OC(C)CC(N(C)C)C2O)C(CCOc2ccccc2)CC(C)C(=O)C=CC(C)=CC1COC1OC(C)C(O)C(OC)C1OC (stereo not drawn) , MIC: 0.39

###

Test system: Haemophilus influenzae Holt
runDescription: MIC, standard agar-dilution assay, Haemophilus influenzae Holt
Type: cell-based
measurementParameters: Haemophilus influenzae Holt; ampicillin-sensitive strain; agar dilution
Could you please mark t for values of MIC below 30 µg/mL and f for values at or above it?

Check out these entries, answers already filled in.
1. CCC(=O)OC1C(C)OC(OC2C(CCN3C(=O)c4ccccc4C3=O)CC(C)C(=O)C=CC(C)=CC(COC3OC(C)C(O)C(OC)C3OC)C(CC)OC(=O)CC(O)C2C)C(OC(=O)CC)C1N(C)C (stereo not drawn)	f
2. CCC1OC(=O)CC(O)C(C)C(OC2OC(C)C(O)C(N(C)C)C2OC(C)=O)C(CCOc2ccccc2)CC(C)C(=O)C=CC(C)=CC1COC1OC(C)C(O)C(OC)C1OC (stereo not drawn)	f
3. CCC1OC(=O)CC(O)C(C)C(OC2OC(C)C(O)C(N(C)C)C2O)C(CCN2C(=O)c3ccccc3C2=O)CC(C)C(=O)C=CC(C)=CC1COC1OC(C)C(O)C(OC)C1OC (stereo not drawn)	f
4. CCC(=O)OC1C(OC2C(CCN3C(=O)c4ccccc4C3=O)CC(C)C(=O)C=CC(C)=CC(COC3OC(C)C(O)C(OC)C3OC)C(CC)OC(=O)CC(O)C2C)OC(C)C(O)C1N(C)C (stereo not drawn)	f
5. CCC(=O)OC1C(OC2C(CCCl)CC(C)C(=O)C=CC(C)=CC(COC3OC(C)C(O)C(OC)C3OC)C(CC)OC(=O)CC(O)C2C)OC(C)C(O)C1N(C)C (stereo not drawn)	t
6. CCC1OC(=O)CC(O)C(C)C(OC2OC(C)C(O)C(N(C)C)C2O)C(CCOc2ccc(CO)cc2)CC(C)C(=O)C=CC(C)=CC1COC1OC(C)C(O)C(OC)C1OC (stereo not drawn) [Compound 51a]	f
7. CCC1OC(=O)CC(O)C(C)C(OC2OC(C)C(OC3CC(C)(O)C(O)C(C)O3)C(N(C)C)C2O)C(CCOc2ncnc3ccccc23)CC(C)C(=O)C=CC(C)=CC1COC1OC(C)C(O)C(OC)C1OC (stereo not drawn) [Compound 19a]	f
8. CCC1OC(=O)CC(O)C(C)C(OC2OC(C)C(O)C(N(C)C)C2O)C(CCOc2nnc(-c3ccccc3)c(-c3ccccc3)n2)CC(C)C(=O)C=CC(C)=CC1COC1OC(C)C(O)C(OC)C1OC (stereo not drawn)	f

Request: Quick check: does CCC1OC(=O)CC(O)C(C)C(OC2OC(C)C(O)C(N(C)C)C2O)C(CCOc2ccccc2)CC(C)C(=O)C=CC(C)=CC1COC1OC(C)C(O)C(O)C1OC (stereo not drawn) have MIC under 30 µg/mL?
Response: f

Request: Quick check: does CCC1OC(=O)CC(O)C(C)C(OC2OC(C)C(OC(C)=O)C(N(C)C)C2OC(C)=O)C(CCOc2ccccc2)CC(C)C(=O)C=CC(C)=CC1COC1OC(C)C(O)C(OC)C1OC (stereo not drawn) have MIC under 30 µg/mL?
Response: f

Request: Quick check: does CC(=O)O.CC(=O)O.CCC1OC(=O)CC(O)C(C)C(OC2OC(C)C(O)C(N(C)C)C2O)C(CCN)CC(C)C(=O)C=CC(C)=CC1COC1OC(C)C(O)C(OC)C1OC (stereo not drawn) [Compound 51b, 20-DH-DO-20-Aminodesmycosin diacetate] have MIC under 30 µg/mL?
Response: f

Request: Quick check: does CCC1OC(=O)CC(O)C(C)C(OC2OC(C)C(O)C(N(C)C)C2O)C(CCOc2ncnc3ccccc23)CC(C)C(=O)C=CC(C)=CC1COC1OC(C)C(O)C(OC)C1OC (stereo not drawn) have MIC under 30 µg/mL?
Response: t

Request: Quick check: does CCOC(=O)NN(CCC1CC(C)C(=O)C=CC(C)=CC(COC2OC(C)C(O)C(OC)C2OC)C(CC)OC(=O)CC(O)C(C)C1OC1OC(C)C(O)C(N(C)C)C1O)C(=O)OCC (stereo not drawn) have MIC under 30 µg/mL?
Response: f

Request: Quick check: does CCC1OC(=O)CC(O)C(C)C(OC2OC(C)C(O)C(N(C)C)C2O)C(CCNC(=O)COc2ccccc2)CC(C)C(=O)C=CC(C)=CC1COC1OC(C)C(O)C(OC)C1OC (stereo not drawn) [Compound 51c] have MIC under 30 µg/mL?
Response: t

Request: Quick check: does CCC1OC(=O)CC(O)C(C)C(OC2OC(C)C(O)C(N(C)C)C2O)C(CCOc2ccc(Oc3ccccc3)cc2)CC(C)C(=O)C=CC(C)=CC1COC1OC(C)C(O)C(OC)C1OC (stereo not drawn) have MIC under 30 µg/mL?
Response: t

Request: Quick check: does CCC1OC(=O)CC(O)C(C)C(OC2OC(C)C(O)C(N(C)C)C2O)C(CCOc2ccc(-c3ccccc3)cc2)CC(C)C(=O)C=CC(C)=CC1COC1OC(C)C(O)C(OC)C1OC (stereo not drawn) have MIC under 30 µg/mL?
Response: t

Request: Quick check: does CC[C@H]1OC(=O)C[C@@H](O)[C@H](C)[C@@H](O[C@@H]2O[C@H](C)[C@H](O)[C@H](N(C)C)[C@H]2O)[C@@H](CCOc2ccccc2)C[C@@H](C)C(=O)/C=C/C(C)=C/[C@@H]1COC1O[C@H](C)[C@@H](O)[C@@H](OC)[C@H]1OC (stereo partly drawn) have MIC under 30 µg/mL?
Response: f
